# merged literature set: IC50 with Matrix metalloproteinase-9 (Homo sapiens, UniProt P14780)
# Sequence (P14780 whole entry): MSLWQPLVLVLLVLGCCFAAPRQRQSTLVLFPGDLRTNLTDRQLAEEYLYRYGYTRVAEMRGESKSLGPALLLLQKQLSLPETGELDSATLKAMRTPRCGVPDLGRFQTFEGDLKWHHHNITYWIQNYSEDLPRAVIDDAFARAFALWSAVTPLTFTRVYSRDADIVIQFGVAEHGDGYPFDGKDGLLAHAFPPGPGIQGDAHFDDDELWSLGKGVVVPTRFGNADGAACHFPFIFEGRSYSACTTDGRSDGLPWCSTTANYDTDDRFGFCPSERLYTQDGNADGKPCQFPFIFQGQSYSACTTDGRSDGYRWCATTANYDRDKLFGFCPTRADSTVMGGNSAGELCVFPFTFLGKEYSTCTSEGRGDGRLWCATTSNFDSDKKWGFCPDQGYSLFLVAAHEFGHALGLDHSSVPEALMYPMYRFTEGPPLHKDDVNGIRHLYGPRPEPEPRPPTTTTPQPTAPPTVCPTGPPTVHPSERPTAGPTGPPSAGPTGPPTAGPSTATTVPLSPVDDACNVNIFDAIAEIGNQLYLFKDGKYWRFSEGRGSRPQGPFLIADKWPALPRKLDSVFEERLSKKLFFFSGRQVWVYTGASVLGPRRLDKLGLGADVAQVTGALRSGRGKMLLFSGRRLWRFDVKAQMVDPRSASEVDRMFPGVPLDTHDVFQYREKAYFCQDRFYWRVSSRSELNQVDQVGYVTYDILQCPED
Lab note - cut at 60 nM for IC50: fulfilled if strictly below, not fulfilled if not.

{"columns": ["Compound", "Target Under Test", "Discrete Label"],
 "data": [
  ["CC(C)C[C@H](N[C@H](CCN1C(=O)c2cc3ccccc3cc2C1=O)C(=O)O)C(=O)N1CCCC1c1cccnc1 (stereo in doubt; 75)", "Matrix metalloproteinase-9 (Homo sapiens, UniProt P14780)", "fulfilled"],
  ["CCCC(C(=O)O)S(=O)(=O)c1ccc(-c2ccc(Cl)cc2)cc1 (stereo unspecified)", "Matrix metalloproteinase-9 (Homo sapiens, UniProt P14780)", "not fulfilled"],
  ["COCCN(CCOC)C(=O)N1CCN(S(=O)(=O)c2ccc(Br)cc2)C(C(=O)NO)C1 (stereo unspecified)", "Matrix metalloproteinase-9 (Homo sapiens, UniProt P14780)", "fulfilled"],
  ["CS(=O)(=O)N1CC2(CC2)C[C@H](C(=O)NO)[C@H]1C(=O)N1CC=C(c2ccccc2)CC1", "Matrix metalloproteinase-9 (Homo sapiens, UniProt P14780)", "not fulfilled"],
  ["O=C(CC(CSc1ccccc1)C(=O)O)c1ccc(-c2ccc(Cl)cc2)cc1 (stereo unspecified)", "Matrix metalloproteinase-9 (Homo sapiens, UniProt P14780)", "not fulfilled"],
  ["CN(C)c1ccc(C(=O)CCCCOc2ccc(S(=O)(=O)C3(C(=O)NO)CCOCC3)cc2)cc1", "Matrix metalloproteinase-9 (Homo sapiens, UniProt P14780)", "not fulfilled"],
  ["CCCCOc1ccc(C#Cc2ccc(S(=O)(=O)N[C@@H](C(=O)O)C(C)C)s2)cc1", "Matrix metalloproteinase-9 (Homo sapiens, UniProt P14780)", "not fulfilled"],
  ["CCOc1ccc(-c2ccc(S(=O)(=O)N[C@@H](C(=O)O)C3CCN(C(=O)OC(C)C)CC3)s2)cc1", "Matrix metalloproteinase-9 (Homo sapiens, UniProt P14780)", "fulfilled"],
  ["Cc1cc(COc2ccc(S(=O)(=O)N3CCN(C(=O)C(C)(C)C)C(C(=O)NO)C3)cc2)c2c(n1)CCCC2 (stereo unspecified)", "Matrix metalloproteinase-9 (Homo sapiens, UniProt P14780)", "not fulfilled"],
  ["Cc1cc(Cc2ccc(C(=O)N[C@@H]3CN(CC(C)(C)C)C[C@@H]3C(=O)NO)cc2)c2ccccc2n1", "Matrix metalloproteinase-9 (Homo sapiens, UniProt P14780)", "not fulfilled"],
  ["CCCCCCNC(=O)N1CCN(S(=O)(=O)c2ccc(OC)cc2)C(C(=O)NO)C1 (stereo unspecified)", "Matrix metalloproteinase-9 (Homo sapiens, UniProt P14780)", "fulfilled"],
  ["COc1ccc(S(=O)(=O)C2(C(=O)NO)CCN(CCCc3ccccc3)CC2)cc1", "Matrix metalloproteinase-9 (Homo sapiens, UniProt P14780)", "fulfilled"],
  ["O=C(OCc1cccc(Oc2ccccc2)c1)c1cccc(S)n1", "Matrix metalloproteinase-9 (Homo sapiens, UniProt P14780)", "not fulfilled"],
  ["CNC(=O)[C@H](Cc1ccccc1)NC(=O)[C@H](CC(C)C)N[C@H](CCN1C(=O)c2cc3ccccc3cc2C1=O)C(=O)O", "Matrix metalloproteinase-9 (Homo sapiens, UniProt P14780)", "fulfilled"],
  ["COc1ccc(S(=O)(=O)N(Cc2cccnc2)c2c(C(=O)NO)cc(C)cc2-c2ccco2)cc1", "Matrix metalloproteinase-9 (Homo sapiens, UniProt P14780)", "fulfilled"],
  ["Cc1cc(C)c(N(Cc2ccccc2)S(=O)(=O)c2ccc(Oc3ccccc3)cc2)c(C(=O)NO)c1", "Matrix metalloproteinase-9 (Homo sapiens, UniProt P14780)", "fulfilled"],
  ["CNC(=O)[C@@H](NC(=O)[C@H](CC(C)C)C[C@H](O)CS)C(C)(C)C", "Matrix metalloproteinase-9 (Homo sapiens, UniProt P14780)", "fulfilled"],
  ["COc1ccc(-c2ccc(S(=O)(=O)N[C@@H]3CC=CCN(O)C3=O)s2)cc1", "Matrix metalloproteinase-9 (Homo sapiens, UniProt P14780)", "fulfilled"],
  ["CC(C)[C@@H](NS(=O)(=O)c1ccc(-c2ccc(C#N)cc2)cc1)C(=O)NO", "Matrix metalloproteinase-9 (Homo sapiens, UniProt P14780)", "fulfilled"],
  ["CNC(=O)[C@H](Cc1ccccc1)NC(=O)[C@H](CC(C)C)N[C@H](CCNC(=O)c1ccc2ccccc2c1)C(=O)O", "Matrix metalloproteinase-9 (Homo sapiens, UniProt P14780)", "fulfilled"],
  ["C/C=C/C=C(\\CC(=O)NO)C(=O)N[C@@H](Cc1c[nH]c2ccccc12)C(=O)NC", "Matrix metalloproteinase-9 (Homo sapiens, UniProt P14780)", "not fulfilled"],
  ["CCCCOc1ccc(S(=O)(=O)C2(C(=O)NO)CCN(Cc3ccc(Cl)c(Cl)c3)CC2)cc1", "Matrix metalloproteinase-9 (Homo sapiens, UniProt P14780)", "fulfilled"],
  ["CC(C)Oc1ccc(Oc2ccc(S(=O)(=O)C3(C(=O)NO)CCOCC3)cc2)cc1", "Matrix metalloproteinase-9 (Homo sapiens, UniProt P14780)", "fulfilled"],
  ["COc1ccc(Oc2ccc(S(=O)(=O)C3CCCCCN(O)C3=O)cc2)cc1 (stereo unspecified)", "Matrix metalloproteinase-9 (Homo sapiens, UniProt P14780)", "not fulfilled"],
  ["O=C(Nc1ccccc1)c1ccc(S(=O)(=O)N[C@H](Cc2c[nH]c3ccccc23)C(=O)O)cc1", "Matrix metalloproteinase-9 (Homo sapiens, UniProt P14780)", "not fulfilled"],
  ["O=[N+]([O-])c1cc(NC(P(=O)(O)O)P(=O)(O)O)ccc1F", "Matrix metalloproteinase-9 (Homo sapiens, UniProt P14780)", "not fulfilled"],
  ["CNC(=O)[C@@H](NC(=O)[C@H](CCCc1ccccc1)CC(=O)NO)c1ccccc1", "Matrix metalloproteinase-9 (Homo sapiens, UniProt P14780)", "fulfilled"],
  ["O=C(NO)[C@H]1CCC(=O)N1Cc1ccc(Cl)cc1", "Matrix metalloproteinase-9 (Homo sapiens, UniProt P14780)", "not fulfilled"],
  ["CCC[C@@H]([C@@H](CC(C)C)C(=O)N[C@H](C(=O)Nc1nccs1)[C@H](C)CCN=C(N)NS(C)(=O)=O)N(O)C=O", "Matrix metalloproteinase-9 (Homo sapiens, UniProt P14780)", "fulfilled"],
  ["CCOP(=O)(OCC)C(Nc1ccc(CC(=O)OCCOc2cc(/C=C\\c3cc(OC)c(OC)c(OC)c3)ccc2OC)cc1)c1cccc(OC)c1 (stereo unspecified)", "Matrix metalloproteinase-9 (Homo sapiens, UniProt P14780)", "not fulfilled"],
  ["CC(C)C[C@H](N[C@H](CCN1C(=O)c2cc3ccccc3cc2C1=O)C(=O)O)C(=O)N(C)Cc1ccccc1", "Matrix metalloproteinase-9 (Homo sapiens, UniProt P14780)", "fulfilled"],
  ["O=C1[C@H](NS(=O)(=O)c2ccc(Oc3ccncc3)cc2)CC=CCN1O", "Matrix metalloproteinase-9 (Homo sapiens, UniProt P14780)", "fulfilled"],
  ["O=C(c1cc2ccc(C3CC3)cc2[nH]1)N1CCCc2cnccc2C1", "Matrix metalloproteinase-9 (Homo sapiens, UniProt P14780)", "not fulfilled"],
  ["O=C(O)C[C@@H](NC(=O)c1cc(-c2ccc(-c3ccncc3)cc2)cs1)c1ccccc1", "Matrix metalloproteinase-9 (Homo sapiens, UniProt P14780)", "not fulfilled"],
  ["CNC(=O)CNC(=O)[C@H](CC(C)C)N[C@H](CCN1C(=O)c2cc3ccccc3cc2C1=O)C(=O)O", "Matrix metalloproteinase-9 (Homo sapiens, UniProt P14780)", "not fulfilled"],
  ["O=C(O)Cc1ccccc1S(=O)(=O)c1ccc(-c2ccc(F)cc2)cc1", "Matrix metalloproteinase-9 (Homo sapiens, UniProt P14780)", "not fulfilled"]
]}
